These data points were gathered from paper PMC9037808.

Tested on: HeLa
Protocol details: MTT cytotoxicity assay, HeLa
Assay type: cell-based
Condition parameters: Homo sapiens, HeLa, 24 h, read-out: IC50, HeLa
Sorting guide: entries reporting IC50 beneath 60 µM go in the Condition met pile, the rest go in the Condition not met pile.

1. CCn1c2ccccc2c2cc(C3CC(c4cc5c(ccc6ccccc65)oc4=O)=NN3C(N)=O)ccc21 (stereo not shown) | Condition met

Problem: For CCn1c2ccccc2c2cc(/C=C/C(=O)c3cc4ccccc4oc3=O)ccc21 , is the recorded IC50 below the cut-off of 60 µM?
Result: Condition not met

Problem: For CCn1c2ccccc2c2cc(C3CC(c4cc5ccccc5oc4=O)=NN3c3ccccc3)ccc21 (stereo not shown) , is the recorded IC50 below the cut-off of 60 µM?
Result: Condition not met

Problem: For CCn1c2ccccc2c2cc(C3CC(c4cc5c(ccc6ccccc65)oc4=O)=NN3c3cccc(Cl)c3)ccc21 (stereo not shown) , is the recorded IC50 below the cut-off of 60 µM?
Result: Condition met

Problem: For CCn1c2ccccc2c2cc(C3CC(c4cc5ccccc5oc4=O)=NN3c3ccc(C)cc3)ccc21 (stereo not shown) , is the recorded IC50 below the cut-off of 60 µM?
Result: Condition not met

Problem: For CCn1c2ccccc2c2cc(C3CC(c4cc5ccccc5oc4=O)=NN3C(C)=O)ccc21 (stereo not shown) , is the recorded IC50 below the cut-off of 60 µM?
Result: Condition met

====

Tested on: HeLa
Protocol details: MTT cytotoxicity assay, HeLa
Assay type: cell-based
Condition parameters: Homo sapiens, HeLa, 24 h, read-out: IC50, HeLa
Entries and their measured pIC50 follow.
Quick note: pIC50 values are minus log10 of concentrations in mol/L.

Reference set, count: 2
1. CCn1c2ccccc2c2cc(C3CC(c4cc5cccc(OC)c5oc4=O)=NN3c3cccc(Cl)c3)ccc21 (stereo not drawn) [Compound 7b] | 4.94
2. CCn1c2ccccc2c2cc(C3CC(c4cc5cccc(OC)c5oc4=O)=NN3C(N)=O)ccc21 (stereo not drawn) [Compound 4b] | 4.53

Please turn your attention to the following entry.
Problem: # input compound: CCn1c2ccccc2c2cc(C3CC(c4cc5ccccc5oc4=O)=NN3C(N)=O)ccc21 (stereo not drawn) [Compound 4a] ; wanted: its pIC50
Result: 4.90

====

Test system: NCI-H520
Protocol details: MTT cytotoxicity assay, NCI-H520
Assay type: cell-based
Condition parameters: read-out: IC50, NCI-H520; MTT, 24 h treatment, mean of three independent experiments
Measure: IC50 (µM)
Write the value in µM as a bare number.

Problem: # input compound: N.N.[Cl][Pt][Cl] [Cis-platin, reference compound] ; wanted: its IC50
Result: 10.4

====

Tested on: HeLa
Protocol details: MTT cytotoxicity assay, HeLa
Type: cell-based
Condition parameters: Homo sapiens, HeLa, 24 h, read-out: IC50, HeLa
Measure: IC50 (µM)
Write the value in µM as a bare number.

Problem: # input molecule: CCn1c2ccccc2c2cc(C3CC(c4cc5cccc(OC)c5oc4=O)=NN3c3ccc(C)cc3)ccc21 (stereo not shown) [Compound 6b] ; wanted: its IC50
Result: 30.8

Problem: # input molecule: CCn1c2ccccc2c2cc(C3CC(c4cc5ccccc5oc4=O)=NN3c3cccc(Cl)c3)ccc21 (stereo not shown) [Compound 7a] ; wanted: its IC50
Result: 33.4

Problem: # input molecule: CCn1c2ccccc2c2cc(C3CC(c4cc5c(ccc6ccccc65)oc4=O)=NN3c3ccccc3)ccc21 (stereo not shown) [Compound 5c] ; wanted: its IC50
Result: 55

====

System: HeLa
Protocol details: MTT cytotoxicity assay, HeLa
Type: cell-based
Condition parameters: Homo sapiens, HeLa, 24 h, read-out: IC50, HeLa
Sorting guide: entries reporting IC50 beneath 60 µM go in the Met pile, the rest go in the Not met pile.

1. CCn1c2ccccc2c2cc(/C=C/C(=O)c3cc4cccc(OC)c4oc3=O)ccc21 [Compound 3b] | Not met

Problem: For CCn1c2ccccc2c2cc(C3CC(c4cc5c(ccc6ccccc65)oc4=O)=NN3c3ccc(C)cc3)ccc21 (stereo not shown) [Compound 6c] , is the recorded IC50 below the cut-off of 60 µM?
Result: Met

Problem: For CCn1c2ccccc2c2cc(C3CC(c4cc5cccc(OC)c5oc4=O)=NN3C(C)=O)ccc21 (stereo not shown) [Compound 8b] , is the recorded IC50 below the cut-off of 60 µM?
Result: Not met

Problem: For CCn1c2ccccc2c2cc(C3CC(c4cc5c(ccc6ccccc65)oc4=O)=NN3C(C)=O)ccc21 (stereo not shown) [Compound 8c] , is the recorded IC50 below the cut-off of 60 µM?
Result: Met

Problem: For CCn1c2ccccc2c2cc(C3CC(c4cc5cccc(OC)c5oc4=O)=NN3c3ccccc3)ccc21 (stereo not shown) [Compound 5b] , is the recorded IC50 below the cut-off of 60 µM?
Result: Met

Problem: For CCn1c2ccccc2c2cc(/C=C/C(=O)c3cc4c(ccc5ccccc54)oc3=O)ccc21 [Compound 3c] , is the recorded IC50 below the cut-off of 60 µM?
Result: Not met

Problem: For O=c1[nH]cc(F)c(=O)[nH]1 [5-Fluorouracil, reference compound] , is the recorded IC50 below the cut-off of 60 µM?
Result: Met
